Just for reference, patent USRE47150 is where these values come from.

# testedSystem: T1, human tissue factor pathway inhibitor (TFPI) (human, UniProt P10646 29-304, limits assumed)
# T1 construct: bought; also called hTFPI; human TFPI
# T1 sequence (looked up): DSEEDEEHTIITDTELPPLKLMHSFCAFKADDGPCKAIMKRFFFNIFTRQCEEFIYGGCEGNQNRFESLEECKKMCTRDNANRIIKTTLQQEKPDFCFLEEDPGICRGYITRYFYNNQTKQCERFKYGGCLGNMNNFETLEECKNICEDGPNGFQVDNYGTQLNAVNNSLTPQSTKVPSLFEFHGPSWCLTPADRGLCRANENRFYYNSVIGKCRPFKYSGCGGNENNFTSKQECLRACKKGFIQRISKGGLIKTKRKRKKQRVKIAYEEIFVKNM
# experimentDescription: competitive ELISA
Some binders, each annotated with its measured variant/HC_D62R.
Express your answer in ratio, writing the number without its unit.

Below are worked cases with known answers.
| binder | variant/HC_D62R / ratio |
| --- | --- |
| 4B7 HC D62S+H107M+Y112D/LC S32R+D33F+N35I (Fab, V domains shown) VH: QVQLQQSGPGLVKPSQTLSLTCAISGDSVSSNSAAWSWIRQSPGRGLEWLGIIYKRSKWYNSYAVSVKSRITINPDTSKNQFSLQLNSVTPEDTAVYYCARWHSDKMWGFDDWGQGTLVTVSS VL: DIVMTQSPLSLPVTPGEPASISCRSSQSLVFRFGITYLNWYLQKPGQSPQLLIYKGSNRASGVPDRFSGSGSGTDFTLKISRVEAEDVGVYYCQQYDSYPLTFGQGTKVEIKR | 18.2 |
| 4B7 HC N32D+D62R+H107M+Y112D/LC S32R+N35T (Fab, V domains shown) VH: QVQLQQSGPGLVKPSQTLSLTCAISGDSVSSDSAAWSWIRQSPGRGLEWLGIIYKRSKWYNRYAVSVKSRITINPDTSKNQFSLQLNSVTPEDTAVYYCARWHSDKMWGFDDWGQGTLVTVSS VL: DIVMTQSPLSLPVTPGEPASISCRSSQSLVFRDGTTYLNWYLQKPGQSPQLLIYKGSNRASGVPDRFSGSGSGTDFTLKISRVEAEDVGVYYCQQYDSYPLTFGQGTKVEIKR | 25.3 |

Attention now shifts to the item below.
**Q:** Entry 4B7 HC N32D+D62Q+Y112D/LC F31M+S32R+D33F+N35I (Fab, V domains shown) VH: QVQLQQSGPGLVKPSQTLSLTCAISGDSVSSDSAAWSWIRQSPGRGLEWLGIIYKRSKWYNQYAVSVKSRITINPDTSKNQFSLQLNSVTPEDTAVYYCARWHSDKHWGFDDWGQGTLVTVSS VL: DIVMTQSPLSLPVTPGEPASISCRSSQSLVMRFGITYLNWYLQKPGQSPQLLIYKGSNRASGVPDRFSGSGSGTDFTLKISRVEAEDVGVYYCQQYDSYPLTFGQGTKVEIKR has what variant/HC_D62R?
**A:** 20.8
